Source: ChEMBL document CHEMBL1124023

Documented Change in reaction time across a set of molecules
tested on: Mus musculus; assay: Analgesic activity (0.5 ug icv) tested after 30min, in mice tail-flick test; type: functional
Measure: Change in reaction time (%)

In [3]: df
Out[3]:
                                   molecule  observed_value
0  COC(=O)[C@@H](CCCN=C(N)N)NC(=O)[C@@H](N)Cc1cn(Sc2ccccc2[N+](=O)[O-])c2ccccc12.Cl              23
1  COC(=O)[C@H](Cc1cn(Sc2ccccc2[N+](=O)[O-])c2ccccc12)NC(=O)[C@@H](N)CCCN=C(N)N              52
2  COC(=O)[C@H](CCCN=C(N)N)NC(=O)[C@H](N)Cc1cn(Sc2ccccc2[N+](=O)[O-])c2ccccc12.Cl              26
3  COC(=O)[C@@H](CCCN=C(N)N)NC(=O)[C@H](N)Cc1cn(Sc2ccccc2[N+](=O)[O-])c2ccccc12.Cl              10
4  Cl.N=C(N)NCCCC1NC(=O)[C@H](Cc2cn(Sc3ccccc3[N+](=O)[O-])c3ccccc23)NC1=O (stereo in doubt)              23
5  COC(=O)[C@H](CCCCN)NC(=O)[C@@H](N)Cc1cn(Sc2ccccc2[N+](=O)[O-])c2ccccc12              76
6  COC(=O)[C@H](Cc1cn(Sc2ccccc2[N+](=O)[O-])c2ccccc12)NC(=O)[C@@H](N)CCCCN              50

###

test system: Mus musculus; assay: Analgesic activity (0.5 ug icv) tested after 60min, in mice tail-flick test; type: functional
Measure: Change in reaction time (%)

>>> print(df.to_string())
                                   compound  target_entity  observed_value
0  COC(=O)[C@H](Cc1cn(Sc2ccccc2[N+](=O)[O-])c2ccccc12)NC(=O)[C@@H](N)CCCN=C(N)N   Mus musculus              22
1  COC(=O)[C@H](CCCN=C(N)N)NC(=O)[C@H](N)Cc1cn(Sc2ccccc2[N+](=O)[O-])c2ccccc12.Cl   Mus musculus              23
2  COC(=O)[C@H](Cc1cn(Sc2ccccc2[N+](=O)[O-])c2ccccc12)NC(=O)[C@@H](N)CCCCN   Mus musculus              20
3  COC(=O)[C@@H](CCCN=C(N)N)NC(=O)[C@H](N)Cc1cn(Sc2ccccc2[N+](=O)[O-])c2ccccc12.Cl   Mus musculus              -2
4  COC(=O)[C@H](CCCCN)NC(=O)[C@@H](N)Cc1cn(Sc2ccccc2[N+](=O)[O-])c2ccccc12   Mus musculus              33
5  Cl.N=C(N)NCCCC1NC(=O)[C@H](Cc2cn(Sc3ccccc3[N+](=O)[O-])c3ccccc23)NC1=O (stereo in doubt)   Mus musculus              15
6  COC(=O)[C@@H](CCCN=C(N)N)NC(=O)[C@@H](N)Cc1cn(Sc2ccccc2[N+](=O)[O-])c2ccccc12.Cl   Mus musculus               9
